Value source: patent US20140228349A1

Each item that follows carries a reported IC50.
# Tested System: JAK3 (Homo sapiens)
# Sequence (P52333 1-1124): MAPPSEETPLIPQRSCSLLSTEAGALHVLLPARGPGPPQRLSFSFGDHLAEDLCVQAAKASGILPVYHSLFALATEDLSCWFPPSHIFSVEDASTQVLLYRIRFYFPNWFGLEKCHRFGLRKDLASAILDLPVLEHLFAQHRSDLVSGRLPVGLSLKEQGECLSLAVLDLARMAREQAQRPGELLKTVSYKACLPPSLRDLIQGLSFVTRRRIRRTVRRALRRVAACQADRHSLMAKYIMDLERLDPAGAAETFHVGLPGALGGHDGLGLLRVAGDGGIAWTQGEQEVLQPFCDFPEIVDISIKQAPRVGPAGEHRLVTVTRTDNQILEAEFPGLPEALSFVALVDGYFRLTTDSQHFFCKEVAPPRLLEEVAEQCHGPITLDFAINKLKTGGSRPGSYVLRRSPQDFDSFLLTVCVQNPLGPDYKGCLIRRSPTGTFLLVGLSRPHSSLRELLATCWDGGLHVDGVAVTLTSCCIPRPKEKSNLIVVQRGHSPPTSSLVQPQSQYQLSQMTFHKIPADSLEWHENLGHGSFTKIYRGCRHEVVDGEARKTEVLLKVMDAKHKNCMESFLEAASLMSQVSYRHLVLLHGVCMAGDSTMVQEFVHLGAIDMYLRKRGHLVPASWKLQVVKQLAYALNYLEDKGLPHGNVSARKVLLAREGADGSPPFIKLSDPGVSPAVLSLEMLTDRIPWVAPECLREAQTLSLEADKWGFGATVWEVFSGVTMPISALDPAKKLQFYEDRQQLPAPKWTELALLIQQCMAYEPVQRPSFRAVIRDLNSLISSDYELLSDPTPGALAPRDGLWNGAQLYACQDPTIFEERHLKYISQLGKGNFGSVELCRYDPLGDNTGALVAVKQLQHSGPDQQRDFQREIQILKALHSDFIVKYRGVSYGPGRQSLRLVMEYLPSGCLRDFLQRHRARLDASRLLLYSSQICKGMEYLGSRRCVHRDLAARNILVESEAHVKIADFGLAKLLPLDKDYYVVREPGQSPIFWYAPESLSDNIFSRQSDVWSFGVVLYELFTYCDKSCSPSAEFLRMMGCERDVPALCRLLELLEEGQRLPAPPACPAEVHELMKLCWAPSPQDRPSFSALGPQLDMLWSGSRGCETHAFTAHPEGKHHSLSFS
Property Measured: IC50

> print(dat)
                                    compound  endpoint.value
 1  CSCCn1cc(-c2nc(-c3cnn(C)c3)cc3nccn23)cn1 [Example 21]  100 to 1000 nM
 2  CCCC(C1CC1)n1cc(-c2nc(-c3cnn(C)c3)cc3nccn23)cn1 (stereo not shown) [Example 15]  100 to 1000 nM
 3  CC#CCC(C1CC1)n1cc(-c2nc(-c3cnn(C)c3)cc3nccn23)cn1 (stereo not shown) [Example 45]       > 1000 nM
 4  C[C@@H](O)C[C@H](C1CC1)n1cc(-c2nc(-c3cnn(C)c3)cc3nccn23)cn1 [Example 40]       > 1000 nM
 5  CCOC(=O)CC1(n2cc(-c3nc(-c4cnn(C)c4)cc4nccn34)cn2)CN(S(=O)(=O)C(F)(F)F)C1 [Example 1]       > 1000 nM
 6  Cn1cc(-c2cc3nccn3c(-c3cnn(C4(C)CN(S(=O)(=O)C(F)(F)F)C4)c3)n2)cn1 [Example 16]       > 1000 nM
 7  Cn1cc(-c2cc3nccn3c(-c3ccn([C@@H](C[C@@H](O)C(F)(F)F)C4CC4)c3)n2)cn1 [Example 101]  100 to 1000 nM
 8  CCCC1(n2cc(-c3nc(-c4cnn(C)c4)cc4nccn34)cn2)CN(S(=O)(=O)C(F)(F)F)C1 [Example 88]  100 to 1000 nM
 9  Cn1cc(-c2cc3nccn3c(-c3ccn([C@@H](CCF)[C@@H]4CC4(F)F)c3)n2)cn1 [Example 24]  100 to 1000 nM
10  O=S(=O)(N1CC(CCF)(n2cc(-c3nc(-c4cnn(C5CCOCC5)c4)cc4nccn34)cn2)C1)C(F)(F)F [Example 60]  100 to 1000 nM
11  COCCC(C1CCOC1)n1cc(-c2nc(-c3cnn(C)c3)cc3nccn23)cn1 (stereo not shown) [Example 75]       > 1000 nM
12  Cn1cc(-c2cc3nccn3c(-c3ccn([C@@H](C[C@H](O)C(F)(F)F)C4CC4)c3)n2)cn1 [Example 102]       > 1000 nM
13  Cn1cc(-c2cc3nccn3c(-c3cnn(C(CCF)C4CCCC4)c3)n2)cn1 (stereo not shown) [Example 66]  100 to 1000 nM
14  COCCC1(n2cc(-c3nc(-c4cnn(C)c4)cc4nccn34)cn2)CCC1 [Example 53]  100 to 1000 nM
15  Cn1cc(-c2cc3nccn3c(-c3cnn(C4(CCO)CN(S(=O)(=O)C(F)(F)F)C4)c3)n2)cn1 [Example 3]  100 to 1000 nM
16  COC(=O)CC(c1ccc(F)cc1)n1cc(-c2nc(-c3cnn(C)c3)cc3nccn23)cn1 (stereo not shown) [Example 80]       > 1000 nM
